FYI, the data here is from patent US20150376198A1.

assayedTarget: human Arginine Vasopressin Receptor 1a (AVPR1a) (Homo sapiens, UniProt P37288)
Sequence (P37288 whole entry): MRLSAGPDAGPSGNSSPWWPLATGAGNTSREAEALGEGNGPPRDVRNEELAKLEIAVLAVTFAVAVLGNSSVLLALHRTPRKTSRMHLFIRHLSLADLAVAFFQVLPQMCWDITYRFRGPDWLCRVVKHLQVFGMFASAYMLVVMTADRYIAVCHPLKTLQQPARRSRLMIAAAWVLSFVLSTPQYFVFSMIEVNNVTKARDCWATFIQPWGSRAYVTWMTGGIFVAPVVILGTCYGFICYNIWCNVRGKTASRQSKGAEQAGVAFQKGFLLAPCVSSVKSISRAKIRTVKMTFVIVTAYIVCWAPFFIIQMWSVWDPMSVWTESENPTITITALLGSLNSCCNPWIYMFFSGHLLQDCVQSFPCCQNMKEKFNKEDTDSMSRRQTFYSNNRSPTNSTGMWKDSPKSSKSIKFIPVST
testSummary: cell-based
experimentalParameters: read-out: V1a-R IC50
recordedEndpoint: pIC50
By convention, pIC50 is the negative base-10 log of a molar concentration.

1. O=C(C1CCN(c2ncc(C(F)(F)F)cn2)CC1)N1CCCCc2cc(Cl)ccc21 [Compound 210] | 7.05
2. Cc1cc(C)nc(N2CCC(C(=O)N3CCCC(F)c4cc(Cl)ccc43)CC2)n1 (stereo not shown) [Compound 196] | 7.08

Ask: For the record O=C(C1CCN(c2nc3ccccc3o2)CC1)N(CC1CC1)c1ccc(Cl)cc1 [Compound 206] , what value of pIC50 is listed for human Arginine Vasopressin Receptor 1a (AVPR1a) (Homo sapiens, UniProt P37288)?
Result: 6.89

Ask: Also check O=C(C1CCN(c2nccc(C(F)(F)F)n2)CC1)N(CC1CC1)c1ccc(Cl)cc1 [Compound 171]
Result: 6.84

###

# IC50 values compiled below
assayedTarget: human Arginine Vasopressin Receptor 1a (AVPR1a) (Homo sapiens, UniProt P37288)
testSummary: cell-based
experimentalParameters: read-out: V1a-R IC50
Express the result in nM but write the number alone.

Consider the worked cases shown below.
1. O=C(c1cc2ccccc2[nH]1)N1CCC(C(=O)N2CCCCc3cc(Cl)ccc32)CC1 [Compound 121] | 446
2. Cc1cc(C)nc(N2CCC(C(=O)N3CCCC(C)(O)c4cc(Cl)ccc43)CC2)n1 (centres unmarked) [Compound 197] | 134
3. Cc1cc(C)nc(N2CCC(C(=O)N3CCCC(O)c4cc(Cl)ccc43)CC2)n1 (centres unmarked) [Compound 195] | 26
4. O=C(C1CCN(c2ncc(Cl)cn2)CC1)N(CC1CC1)c1ccc(Cl)cc1 [Compound 167] | 195
5. N#Cc1cccnc1N1CCC(C(=O)N2CCCCc3cc(Cl)ccc32)CC1 [Compound 111] | 130

Ask: Consider the compound shown here: O=C(C1CCN(c2ncnc3ccc(F)cc23)CC1)N1CCCCc2cc(Cl)ccc21 [Compound 212] What is its recorded IC50?
Result: 49

Ask: Also check O=C(c1ccccc1F)N1CCC(C(=O)N2CCCCc3cc(Cl)ccc32)CC1 [Compound 84]
Result: 1490

Ask: Also check Cc1cccnc1N1CCN(C(=O)N2CCCCc3cc(Cl)ccc32)CC1 [Compound 124]
Result: 40

###

assayedTarget: human Arginine Vasopressin Receptor 1a (AVPR1a) (Homo sapiens, UniProt P37288)
testSummary: cell-based
experimentalParameters: read-out: V1a-R IC50
recordedEndpoint: pIC50
By convention, pIC50 is the negative base-10 log of a molar concentration.

Consider the worked cases shown below.
1. Cc1cc(N2CCC(C(=O)N(CC3CC3)c3ccc(Cl)cc3)CC2)ncc1Cl | 7.39
2. Cc1cccnc1N1CCC(C(=O)N(CC2CC2)c2ccc(Cl)cc2)CC1 | 8.15
3. O=C(N1CCN(c2nccs2)CC1)N1CCCCc2cc(Cl)ccc21 | 6.57

Now look at this one.
Ask: Consider the molecule shown here: O=C(C1CCN(c2ncc(Cl)cc2F)CC1)N(CC1CC1)c1ccc(Cl)cc1 What is its recorded pIC50?
Result: 7.21
